# Assay comment: Activity against P388 ascitic leukemia in mice, i.p. treatment on day 1 after tumor inoculation
# Assay type: in vivo
# Assay conditions: mouse, in vivo, ip; 22.5 mg/kg i.p. day 1; read-out: Toxicity Death
Observation type: mortality (%)
# number only, unit % dropped from output

Query block: Entry COc1cccc2c1C(=O)c1c(O)c3c(c(O)c1C2=O)C[C@@](O)(C(=O)CO)C[C@@H]3O[C@H]1C[C@@H](N)C[C@H](C)O1 [XOO-0155, 4'-deoxy-3'-epi-doxorubicin] : reported mortality = ?
Result block: 10
